Where do the numbers come from? From paper PMC7156458.

biological target: Aβ42 (Homo sapiens, UniProt P05067); assay: Th-T (thioflavin-T) assay of Aβ42 aggregation; assay type: biochemical; conditions: column suffix _50; reading M103
Sequence (P05067 672-713): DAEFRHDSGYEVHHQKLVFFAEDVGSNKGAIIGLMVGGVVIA
Here, each record is paired with measured Fig. 7a Th-T reading, mean of three wells data.
Just the number, please.

Examples with answers:
COMPOUND	QUANTITATIVE_RESULT
C=C1CC[C@@H]2[C@](C)(CC[C@H]3O[C@H](C=C(C)C)C[C@@]23C)[C@@H]1Cc1c(OC)oc(CO)c(C)c1=O	2.088
C=C1CCC2C(C)(CCC=C(C)C)C(O)CCC2(C)C1Cc1c(OC)oc(C)c(C(=O)OC)c1=O (centres unmarked)	1.372
C=C1CC[C@@H]2[C@](C)(CC[C@H]3O[C@H](C=C(C)C)C[C@@]23C)[C@@H]1Cc1c(OC)oc(CO)c(C(=O)OC)c1=O	0.4762
C=C1CCC2C(C)(CCC=C(C)C)C(O)CCC2(C)C1Cc1c(OC)oc(CO)c(C(=O)OC)c1=O (centres unmarked)	0.4747

// next entry
Give a short answer stating reported Fig. 7a Th-T reading, mean of three wells for C=C1CCC2C(C)(CCC=C(C)C)C(O)CCC2(C)C1Cc1c(OC)oc(CO)c(C)c1=O (centres unmarked) .
1.417

----------
target: UniProt P05067; assay: Th-T (thioflavin-T) assay of Aβ42 aggregation; assay type: biochemical; conditions: time-course reading M107; Supplementary Fig. 47 source data
METRIC: Th-T fluorescence, mean of three wells
Just the number, please.

Give a short answer stating reported Th-T fluorescence, mean of three wells for C=C1CCC2C(C)(CCC=C(C)C)C(=O)CCC2(C)C1Cc1c(O)c(C)c(C)oc1=O (stereo not shown) .
2.2129

Give a short answer stating reported Th-T fluorescence, mean of three wells for C=C1CCC2C(C)(CC(=O)C=C(C)C)C(O)CCC2(C)C1Cc1c(OC)oc(CO)c(C)c1=O (stereo not shown) .
3.608

Give a short answer stating reported Th-T fluorescence, mean of three wells for C=C1CC[C@H]2[C@]3(C)C[C@H](C=C(C)C)O[C@H]3CC[C@]2(C)[C@@H]1Cc1c(OC)oc(CO)c(C)c1=O .
3.854

Give a short answer stating reported Th-T fluorescence, mean of three wells for C=C1CCC2C(C)(CC(=O)C=C(C)C)C(O)CCC2(C)C1Cc1c(OC)oc(C)c(C)c1=O (stereo not shown) .
3.656

Give a short answer stating reported Th-T fluorescence, mean of three wells for C=C1CCC2C(C)(CCC=C(C)C)C(O)CCC2(C)C1Cc1c(OC)oc(C)c(C(=O)OC)c1=O (stereo not shown) .
1.627

Give a short answer stating reported Th-T fluorescence, mean of three wells for C=C1CCC2C(C)(CCC=C(C)C)C(O)CCC2(C)C1Cc1c(OC)oc(C)c(C)c1=O (stereo not shown) [Compound 11] .
3.469

Give a short answer stating reported Th-T fluorescence, mean of three wells for CC(C)=CCC/C(C)=C/CC/C(C)=C/CC/C(C)=C/Cc1c(O)c(C)c(C)oc1=O .
2.931

----------
target: Aβ42 (Homo sapiens, UniProt P05067); test: Th-T (thioflavin-T) assay of Aβ42 aggregation; format: biochemical; settings: measurement M7; source data, Ab alone and No Ab as controls
METRIC: Th-T assay plate reading, mean of three wells (Supplementary Fig. 47)
Just the number, please.

Examples with answers:
MOLECULE	TARGET	QUANTITATIVE_RESULT
C=C1CCC2C(C)(CCC=C(C)C)C(O)CCC2(C)C1Cc1c(OC)oc(CO)c(C)c1=O (stereo not shown)	Aβ42 (Homo sapiens, UniProt P05067)	0.6238
C=C1CCC2C(C)(CC(=O)C=C(C)C)C(O)CCC2(C)C1Cc1c(O)c(C)c(C)oc1=O (stereo not shown)	Aβ42 (Homo sapiens, UniProt P05067)	0.5127
C=C1CCC2C(C)(CCC=C(C)C)C(O)CCC2(C)C1Cc1c(O)c(C)c(C)oc1=O (stereo not shown) [Compound 9, higginsianin B]	Aβ42 (Homo sapiens, UniProt P05067)	0.386
C=C1CCC2C(C)(CCC=C(C)C)C(O)CCC2(C)C1Cc1c(OC)oc(C)c(C)c1=O (stereo not shown) [Compound 11]	Aβ42 (Homo sapiens, UniProt P05067)	0.318
C=C1CCC2C(C)(CCC=C(C)C)C(O)CCC2(C)C1Cc1c(OC)oc(CO)c(C(=O)OC)c1=O (stereo not shown)	Aβ42 (Homo sapiens, UniProt P05067)	0.1938
C=C1CC[C@@H]2[C@](C)(CC[C@H]3O[C@H](C=C(C)C)C[C@@]23C)[C@@H]1Cc1c(O)c(C)c(C)oc1=O	Aβ42 (Homo sapiens, UniProt P05067)	0.4946

Give a short answer stating reported Th-T assay plate reading, mean of three wells (Supplementary Fig. 47) for C=C1CC[C@H]2[C@]3(C)C[C@H](C=C(C)C)O[C@H]3CC[C@]2(C)[C@@H]1Cc1c(OC)oc(C)c(C)c1=O .
0.3234
